# assay_system: T1, b-KDRIg4-7-myc-his (UniProt P35968 328-764, prefix 'b-' not explained; captured on neutravidin-coated plates (presumably biotinylated, site not stated))
# T1 construct: domain: Ig4-7; The text calls it 'a KDR antibody containing the Ig4-7 domain'; it is read as the KDR fragment; Purified on a nickel column; also called Ig4-7 domain of KDR; soluble KDR Ig4-7; not shown: myc-his tag of the pSecTag vector
# T1 sequence (P35968 328-764): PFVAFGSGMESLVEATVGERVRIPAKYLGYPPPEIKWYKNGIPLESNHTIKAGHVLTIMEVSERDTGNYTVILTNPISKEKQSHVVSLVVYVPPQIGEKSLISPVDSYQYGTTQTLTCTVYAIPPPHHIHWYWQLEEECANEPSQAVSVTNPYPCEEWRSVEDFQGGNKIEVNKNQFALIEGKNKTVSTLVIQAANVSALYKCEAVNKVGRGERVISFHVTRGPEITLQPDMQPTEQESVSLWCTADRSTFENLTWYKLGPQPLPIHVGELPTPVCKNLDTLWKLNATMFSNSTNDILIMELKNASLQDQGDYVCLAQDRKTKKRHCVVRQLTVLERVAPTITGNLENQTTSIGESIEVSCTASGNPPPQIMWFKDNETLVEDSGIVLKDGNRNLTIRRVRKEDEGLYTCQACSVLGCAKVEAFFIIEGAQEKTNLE
# assay_method_text: ELISA, b-KDRIg4-7-myc-his 1 ug/mL on neutravidin, hybridoma supernatant 1:5
endpoint: b-KDRIg4-7 OD(450 nm) (OD450)
# value in OD450; strip the unit string

Solved entries (count: 2):
binder	unit_of_measure	value_measured
anti-KDR monoclonal antibody 33E1 (antibody, V domains shown, Fully human mAb from XenoMouse (IgG2 or IgG4 strain); hybridoma supernatant) VH: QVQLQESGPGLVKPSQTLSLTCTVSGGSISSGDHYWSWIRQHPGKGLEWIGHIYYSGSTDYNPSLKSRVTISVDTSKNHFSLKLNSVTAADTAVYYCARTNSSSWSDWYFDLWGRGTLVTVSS VL: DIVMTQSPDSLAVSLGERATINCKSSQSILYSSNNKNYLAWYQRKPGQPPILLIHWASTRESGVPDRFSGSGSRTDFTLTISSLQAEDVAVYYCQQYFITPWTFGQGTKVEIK	OD450	0.62
anti-KDR monoclonal antibody 21H6 (antibody, V domains shown, Fully human mAb from XenoMouse; hybridoma supernatant) VH: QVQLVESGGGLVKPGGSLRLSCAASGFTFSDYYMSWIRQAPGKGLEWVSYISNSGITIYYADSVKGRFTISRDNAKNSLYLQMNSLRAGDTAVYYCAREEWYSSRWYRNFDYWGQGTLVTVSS VL: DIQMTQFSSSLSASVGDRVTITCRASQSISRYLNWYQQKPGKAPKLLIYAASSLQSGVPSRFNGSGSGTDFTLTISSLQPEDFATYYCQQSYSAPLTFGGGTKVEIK	OD450	0.935

Next binder, b-KDRIg4-7 OD(450 nm) to be filled in.
Documented b-KDRIg4-7 OD(450 nm) of anti-KDR monoclonal antibody 29H3 (antibody, V domains shown, Fully human mAb from XenoMouse (IgG2 or IgG4 strain); hybridoma supernatant) VH: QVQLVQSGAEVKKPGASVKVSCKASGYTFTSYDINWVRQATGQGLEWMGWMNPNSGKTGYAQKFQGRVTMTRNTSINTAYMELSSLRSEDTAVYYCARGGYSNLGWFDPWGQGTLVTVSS VL: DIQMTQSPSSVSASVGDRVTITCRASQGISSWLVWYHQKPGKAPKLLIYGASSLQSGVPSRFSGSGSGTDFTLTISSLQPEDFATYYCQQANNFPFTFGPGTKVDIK : 0.071

Data origin, for the record: patent US20100260765A1
